Biological target: MNK2a (Homo sapiens (Human), UniProt Q9HBH9)
Sequence (Q9HBH9 whole entry): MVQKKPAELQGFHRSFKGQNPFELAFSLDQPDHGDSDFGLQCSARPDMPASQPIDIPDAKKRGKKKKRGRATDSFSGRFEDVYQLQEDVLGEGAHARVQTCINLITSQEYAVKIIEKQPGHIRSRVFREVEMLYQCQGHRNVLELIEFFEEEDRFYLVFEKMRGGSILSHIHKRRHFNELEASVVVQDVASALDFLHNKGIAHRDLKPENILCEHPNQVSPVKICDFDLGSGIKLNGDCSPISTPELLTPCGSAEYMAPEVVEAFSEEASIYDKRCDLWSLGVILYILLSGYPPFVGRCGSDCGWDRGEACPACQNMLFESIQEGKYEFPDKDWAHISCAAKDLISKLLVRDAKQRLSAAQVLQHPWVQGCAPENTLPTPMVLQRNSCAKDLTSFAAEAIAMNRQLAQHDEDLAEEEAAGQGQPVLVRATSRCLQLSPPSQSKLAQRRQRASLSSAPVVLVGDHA
Assay: MNK2a in vitro kinase assay (Assay 2), ADP-Glo
Format: biochemical
Settings: assay 2; read-out: MNK2 IC50
Measured log10 of IC50 accompanies every entry in the list below.
metric-name: log10 of IC50 (log10 of the value in nM)

compound: CO[C@@H]1COC[C@@H]1Oc1cc(F)ccc1Nc1ncnc2cc(N=S(C)(C)=O)cc(Cl)c12 (racemic)
test-system: MNK2a (Homo sapiens (Human), UniProt Q9HBH9)
log10 of IC50: 0.30

compound: Cc1cc(N=S2(=O)CCCC2)cc2ncnc(Nc3ccc(F)cc3O[C@H]3COC[C@H]3O)c12 (single isomer, unassigned) [Example 14.6]
test-system: MNK2a (Homo sapiens (Human), UniProt Q9HBH9)
log10 of IC50: 0.30

compound: CCS(C)(=O)=Nc1cc(C)c2c(Nc3ccc(F)cc3O[C@H]3COC[C@@H]3O)ncnc2c1 (stereo partly shown)
test-system: MNK2a (Homo sapiens (Human), UniProt Q9HBH9)
log10 of IC50: 0.60

compound: Cc1cc(N=S2(=O)CCC(C)C2)cc2ncnc(Nc3ccc(F)cc3O[C@H]3COC[C@@H]3O)c12 (stereo partly shown)
test-system: MNK2a (Homo sapiens (Human), UniProt Q9HBH9)
log10 of IC50: 0.48

compound: Cc1cc(N=S(C)(C)=O)cc2ncnc(Nc3ccc(F)cc3OC3CCC(O)OC3)c12 (stereo not shown)
test-system: MNK2a (Homo sapiens (Human), UniProt Q9HBH9)
log10 of IC50: 0.48

compound: CO[C@@H]1CN(C(C)=O)C[C@H]1Oc1ncccc1Nc1ncnc2cc(N=S(C)(C)=O)cc(C)c12
test-system: MNK2a (Homo sapiens (Human), UniProt Q9HBH9)
log10 of IC50: 2.77

compound: Cc1cc(N=S2(=O)CCCC2)cc2ncnc(Nc3ccc(F)cc3O[C@@H]3COC[C@@H]3OCc3ccccc3)c12
test-system: MNK2a (Homo sapiens (Human), UniProt Q9HBH9)
log10 of IC50: 1.18

// provenance: patent US10093660B2
